The measurements presented in this section are drawn from PubChem BioAssay (NCI).

Test: NCI Yeast Anticancer Drug Screen. Data for the mlh1 rad18 strain (AID 175)
Conditions: S. cerevisiae mlh1 rad18 strain growth inhibition; at 50.0 µM; hits give high values
The panel holds about 79,000 compounds, 15% with a hit somewhere; the sample as a whole holds those more often.
Readout: growth inhibition (%)

- Cc1ccc(C)c(NC(=O)Oc2ccc(C(=O)OCc3ccccc3)cc2)c1: 89.5
- O=C1c2cc3c(cc2C(=O)c2[nH]c(=O)ccc21)CCCC3: 35.6
- CCOC(=O)C(C)(C)Oc1ccc2c(=O)cc(-c3ccc(Cl)cc3)oc2c1: -29.4
- COc1cccc(N2CCN(CC(O)COc3ccc(N)cc3)CC2)c1 (stereo unspecified): 44
- Cc1ccc(Cl)cc1NC(=O)/C=C/c1ccccc1: 18.6
- O=C(CSCC(=O)c1ccc([N+](=O)[O-])cc1)c1ccc([N+](=O)[O-])cc1: -5

* * *

Experiment: NCI Yeast Anticancer Drug Screen. Data for the mlh1 rad18 strain (AID 175)
Details: S. cerevisiae mlh1 rad18 strain growth inhibition; at 50.0 µM; hits give high values
Compounds without any hit were thinned out: in the full panel of roughly 79,000, 15% have a hit.
Below: a set of entries, each annotated with reported growth inhibition.
Readout: growth inhibition (%)

* Cc1ccc(S/C=C/Sc2ccc(C)cc2)cc1 | 36
* CN(C)CC1CCCC(CN(C)C)C1=NOC(=O)c1ccccc1 (stereo unspecified) | -27.8
* C[N+]1(C)CCCC(c2ccccc2)(c2ccccc2)C(O)C1 (stereo unspecified) | 11.9
* CCOC(=O)N1C/C(=C\c2ccccc2)C(=O)/C(=C/c2ccccc2)C1 | 72.2
* Cc1ccc(S(=O)(=O)/N=C/C=P(c2ccccc2)(c2ccccc2)c2ccccc2)cc1 | -3.65
* CCCCCCCCCc1cc(-c2ccc(C=O)s2)sc1-c1ccc(C=O)s1 | 0.4
* Cc1cc(C)nc(C)c1 | 23.9
* Nc1ccc(N)c2cc(S(=O)(=O)O)ccc12 | 7.9
* Cc1ccc(S(=O)(=O)OC2C3C4CCC5C3SC3C5C4C23)cc1 (stereo unspecified) | 1.1
* C[N+](C)(C)C1C2(CCCCC2)NC(=O)C12CCCCC2 (stereo unspecified) | -2.9
* O=C1C(N=Nc2ccc([N+](=O)[O-])cc2)Sc2nc3ccccc3n21 (stereo unspecified) | 12.2

* * *

Assay: NCI Yeast Anticancer Drug Screen. Data for the bub3 strain (AID 167)
Settings: S. cerevisiae bub3 mutant strain, at 50.0 µM, hits give high values
The panel holds about 79,000 compounds, 15% with a hit somewhere; the sample as a whole holds those more often.
Below: a set of entries, each annotated with reported growth inhibition.
Readout: growth inhibition (%)

• O=C(/C(=N/O)c1ccc(Cl)cc1)c1ccccc1 = 99.3
• CCCCCCCCCCCC(=O)Oc1c(Cl)cc(Cl)c(OC(=O)C(=O)Oc2c(Cl)cc(Cl)c(OC(=O)CCCCCCCCCCC)c2Cl)c1Cl = -4.2
• Clc1ccc(CCc2ccncn2)c(Cl)c1 = 14.7
• COc1ccc(CN)cc1 = 6.85
• COc1ccc2c(c1)CCC(OS(=O)(=O)CC13CCC(CC1=O)C3(C)C)C2=O (stereo not given) = -21.9
• O=C(c1ccccc1)C(O)(c1ccccc1)C(c1ccccc1)c1ccccc1 (stereo not given) = 6.75
• C=C(C)[C@@H]1CC[C@]2(C)CC[C@]3(C)[C@H](CC[C@@H]4[C@@]5(C)CC[C@H](OC(=O)c6ccccc6)C(C)(C)[C@@H]5CC[C@]43C)[C@@H]12 = -0.65
• O=S(=O)(Oc1ccc(OS(=O)(=O)c2ccccc2)cc1)c1ccccc1 = 12.5
• CCOC(=O)/C(C#N)=C/c1c[nH]c2ccccc12 = 19.3
• CC(c1ccc2ccc3cccc4ccc1c2c34)C(C(=O)O)C(=O)O (stereo not given) = 0.75

* * *

Test: NCI Yeast Anticancer Drug Screen. Data for the sgs1 mgt1 strain (AID 161);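 note: 0% = growth of cultures given vehicle only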
Details: S. cerevisiae sgs1 mgt1 strain, at 50.0 µM
The panel holds about 79,000 compounds, 15% with a hit somewhere; the sample as a whole holds those more often. Active and inactive are the calls of the source. Cut-off read from the data, not from the text of the source: active = growth inhibition above about 70%; inactive = the rest.
Classes used: 1 for active, -1 for inactive

* COC(=O)c1c(C)c(C)cc(C)c1C | -1
* CC(=O)c1ccc(OC(=O)Nc2ccc(Cl)cc2)cc1 | -1
* C=C(Nc1ccc([N+](=O)[O-])cc1[N+](=O)[O-])c1c/c(=N\NC(N)=S)c2ccccc2o1 | -1
* COc1ccc(CCN=C(C)c2cc(Cl)cc(Cl)c2O)cc1OC | -1
* CCOc1cc2c(cc1O)/C(=N\O)C[C@@H]1[C@@H]2CC[C@]2(C)[C@@H](O)CC[C@@H]12 | -1
* CCOC(=O)c1ccc(OCC)cc1O | -1
* COC(=O)CCC(=O)CC(=O)C1=NS(=O)(=O)c2nc(S(N)(=O)=O)c(Cl)cc2N1 | -1
* COc1ccc(-c2oc3ccc(C)cc3c(=O)c2O)cc1 | -1
* O=C(Nc1ccc(Cl)c(Cl)c1)OCCN1CCOCC1 | 1
* CC1(CCC(=O)c2ccc3c(c2)OCO3)OCCO1 | -1
* O=C(c1ccc(O)cc1)C1N=NCC1c1ccccc1 (stereo unspecified) | -1

* * *

Test: NCI Yeast Anticancer Drug Screen. Data for the rad50 strain (AID 155);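 note: 0% = growth of vehicle-only cultures of the same strain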
Conditions: S. cerevisiae rad50 strain growth inhibition; at 50.0 µM; hits give high values
Compounds without any hit were thinned out: in the full panel of roughly 79,000, 15% have a hit.
Readout: growth inhibition (%)

- CC(C)n1c(=S)[nH]c2c(=O)[nH]c(=O)[nH]c21: -30.9
- Cc1cccc(C)c1C: 4.8
- CC(C)CCCC(C)C1CCC2C3CCC(O)C(C)(CCCO)C3CCC12C (configuration not stated): 2
- CNC(=S)n1ncnc1N: 11
- COc1cc(C2=N/C(=C\c3cccc([N+](=O)[O-])c3)C(=O)O2)cc(OC)c1OC: -0.45
- CCCCC#CCN(CCCC)CCCC: -19.6
- CCOC(=O)CCC(NC(=O)c1ccc(NC)c([N+](=O)[O-])c1)C(=O)OCC (configuration not stated): 58.9
- CCOC(=O)C(=O)N1Cc2cc3c(cc2C2CC(O)C(O)CC21)OCO3 (configuration not stated): -8.2
- Cc1cc(=O)[nH]c(NNC(=S)NC2CCCCC2)n1: -17.4
- Cc1oc2cc(O)ccc2c(=O)c1-c1ccccc1Br: 9.85
- O=C(O)c1nnn(Cc2ccccc2)c1C(=O)O: 7.75
- COc1cc2c(cc1OC)-c1cc3ccc(OC)c(OC)c3c[n+]1CC2: -8.55

* * *

Test: NCI Yeast Anticancer Drug Screen. Data for the mec2-1 strain (AID 157)
Settings: S. cerevisiae mec2-1 strain, at 50.0 µM, hits give high values
The panel holds about 79,000 compounds, 15% with a hit somewhere; the sample as a whole holds those more often.
Below: a set of entries, each annotated with reported growth inhibition.
Readout: growth inhibition (%)

• CCNC(=O)OC(C)C(O)c1ccccc1 (stereo unspecified) = 11.6
• CC1=C(O[Si](C(C)C)(C(C)C)C(C)C)C2CC1[C@@H]1C(=O)N(c3ccccc3)C(=O)[C@H]21 (stereo partly specified) = -10.8
• O=C(OCCCl)C1OC(n2cc(F)c(=O)[nH]c2=O)CC1O (stereo unspecified) = 3.35
• Nc1nc(N)c(N=Nc2ccc([N+](=O)[O-])cc2)c(=O)[nH]1 = -16.9
• O=C(Cn1c(=O)oc2ccc(C(=O)c3ccc(F)cc3)cc21)c1ccccc1 = -24.5
• COc1ccc(CCc2cc(OC)c(O)c(OC)c2)cc1 = 14.8
• O=C(O)C1=C/C(=C\C=[N+]2c3cc(O)c(OC4OC(CO)C(O)C(O)C4O)cc3CC2C(=O)[O-])CC(C(=O)O)N1 (stereo unspecified) = -3.75
• CCN(CC)CCOc1ccc(N2Cc3cc(OC)c(OC)cc3C2=O)cc1 = -7.45
• OCC12CCCC(OC1)O2 (stereo unspecified) = -14.7
• CN1CN=C(Sc2ccc(Cl)cc2[N+](=O)[O-])NC1 = -35.9
• CCCCCCCCCCCCCCCC(=O)NC(CCCCN)C(=O)NC(CCCCN)C(=O)OCC (stereo unspecified) = 97

* * *

Below: a set of entries, each annotated with reported growth inhibition.
Assay: NCI Yeast Anticancer Drug Screen. Data for the rad50 strain (AID 155);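 note: 0% = growth of vehicle-only cultures of the same strain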
Conditions: S. cerevisiae rad50 strain growth inhibition; at 50.0 µM; hits give high values
The panel holds about 79,000 compounds, 15% with a hit somewhere; the sample as a whole holds those more often.
Readout: growth inhibition (%)

* CCOC(=O)Cn1ccc[n+]1CC(=O)c1ccccc1 | -14.9
* O=C(C[n+]1ccccc1)NNC(=O)/C(=C/c1ccc2c(c1)OCO2)NC(=O)c1ccccc1 | -5.95
* CCCCCC(C/C=N/N(C)C)C(O)(C(F)(F)F)C(F)(F)F (configuration not stated) | 1.35
* CCCCNC(=O)Nc1cc(C)ccc1C | -0.4
* CC(C)N(CC(c1ccccc1)C(O)(c1ccccc1)c1ccccc1)C(C)C (configuration not stated) | 16.1
* COc1ccc2c3c(c4ccccc4c2c1)C(=O)OC3=O | 27.8
* C=CCOc1ccc(S(=O)(=O)c2ccc(OCC=C)cc2)cc1 | 3.55
* CC(C)CNC(=O)O | 5.15
* O=[N+]([O-])c1ccccc1N=NNc1ccccc1[N+](=O)[O-] | 9.65
* CC(C)=NOC(=O)Nc1cccc2c1OCO2 | -30.3
* Clc1ccc(CSc2cnnc(Cl)c2SCc2ccc(Cl)cc2)cc1 | 8.1
* COC(=O)C1Cc2cc(OC)c(OC)cc2C(c2ccc(OC)c(OC)c2)C1C(N)=O (configuration not stated) | -7.9
